Each record here notes measured fold induction at 4 µM.
- Tested on: T-cell
- Assay: CD25 cell surface staining on T-cells co-stimulated with anti-CD3 and anti-CD28 antibody (Biological Example 2)
- Assay type: cell-based, human
- Run Conditions: Homo sapiens, T-cell, fold change over baseline; 4 μM Cbl-b inhibitor; primary human total T-cells; read-out: CD25 staining Anti-CD3/Anti-CD28 stimulation

These recorded examples may help you get a feel for the data.
C[C@H](Cc1nncn1C)c1cc(NCCO)nc(N2Cc3c(cccc3C(F)(F)F)C2=O)c1 [Compound 357] = 1.01 to 1.3
C[C@H](Cc1nncn1C)c1cccc(NC(=O)c2cc3cc(N4CCN(C)C(=O)C4)ccc3cn2)c1 [Compound 209, 2,2,2-trifluoroacetate] = 1.51 to 1.75
C[C@H](Cc1nncn1C)c1cc(OCCO)nc(N2Cc3c(cccc3C(F)(F)F)C2=O)c1 [Compound 359] = 1.31 to 1.5
C[C@H](Sc1nncn1C)c1cccc(NC(=O)c2ccc(Cl)c(C(F)(F)F)n2)c1 [Compound 51] = 1.01 to 1.3
C[C@H](Sc1nncn1C)c1cc(F)cc(N2Cc3c(cccc3C(F)(F)F)C2=O)c1 [Compound 168a] = 1.01 to 1.3

What the record says about Cn1cnnc1CC1(c2cccc(N3Cc4c(cccc4C(F)(F)F)C3=O)c2)CC1 [Compound 299] : fold induction at 4 µM is 1.01 to 1.3

In plain terms, Cc1cc(C(=O)Nc2cccc([C@H](C)Sc3nncn3C)c2)nc(C(F)(F)F)c1 [Compound 65] has a documented fold induction at 4 µM of 1.01 to 1.3

fold induction at 4 µM reported for this molecule C[C@H](Cc1nncn1C)c1cccc(NC(=O)c2cccc(C(F)(F)F)n2)c1 [Compound 183a] : > 1.76

Per the record, C[C@H](Cc1nncn1C)c1cccc(NC(=O)c2ccnc(C(F)(F)F)n2)c1 [Compound 187] has fold induction at 4 µM of > 1.76

---

- Test system: T-cell
- Assay: CD25 cell surface staining on T-cells stimulated with anti-CD3 antibody alone (Biological Example 2)
- Assay type: cell-based, human
- Run Conditions: T-cell; fold change over baseline; 1 μM Cbl-b inhibitor; primary human total T-cells; read-out: CD25 staining Anti-CD3 stimulation
Property: fold induction at 1 µM

Answered examples (3):
C[C@H](Cc1nncn1C)c1cccc(NC(=O)c2cc(O[C@H]3CC[C@@H](O)C3)ccn2)c1 = 0.801 to 1
Cc1cc(C(=O)Nc2cccc([C@H](C)Cc3nncn3C)c2)nc2ccnn12 = 0.601 to 0.8
C[C@H](Sc1nncn1C)c1cccc(NC(=O)c2cc(C(F)(F)F)ccn2)c1 = 0.601 to 0.8

Just so you know, measured fold induction at 1 µM for C[C@H](Sc1nncn1C)c1cccc(NC(=O)c2cc(C(C)(C)O)c(Cl)cn2)c1 came out at < 0.6

For this molecule ( C[C@H](Cc1nncn1C)c1cccc(NC(=O)c2nc3c(C4CC4)cccc3[nH]2)c1 ), measured fold induction at 1 µM is 0.601 to 0.8

C[C@H](Cc1nncn1C)c1cccc(NC(=O)c2cc(C(=O)N3CC[C@](C)(O)C3)ccn2)c1 has a reported fold induction at 1 µM of < 0.6

The measured fold induction at 1 µM associated with C[C@H](Cc1nncn1C)c1cccc(N2Cc3c(Br)cccc3C2=O)c1 reads 0.801 to 1

So, C[C@H](Sc1nncn1C)c1cccc(NC(=O)c2cc3cc(OCc4ccn[nH]4)ccc3cn2)c1 ? Its fold induction at 1 µM was < 0.6

---

- Assay System: Cbl-b (Homo sapiens)
- Assay: Cbl-b inhibition assay (Cbl-b activity assay, FRET, Biological Example 1; 100 mM NaCl, 60 nM Src kinase)
- Format: biochemical
- Run Conditions: upper bound stated in text lists; read-out: IC50 values in the Cbl-b inhibition assay of Biological Example 1
pIC50: −log10 of the molar value.
Reported values of pIC50 for individual entries

Cn1cnnc1CC1(c2cccc(NC(=O)c3ccnc(C(F)(F)F)n3)c2)COC1 = ≥ 6.52
Cc1cc(C(=O)Nc2cccc(C3(C(F)(F)c4nncn4C)CC3)c2)nc(C2CC2)n1 = ≥ 7.00
C[C@H](Cc1nncn1C)c1cccc(NC(=O)c2cc(C(=O)N3CC[C@@H](C#N)C3)ccn2)c1 = ≥ 5.00
Cn1cnnc1CC1(c2cccc(N3Cc4c(cc(CN5[C@@H]6CC[C@H]5C[C@@H](F)C6)cc4C(F)(F)F)C3=O)c2)COC1 = ≥ 7.00

The value of pIC50 measured for the compound CC(c1cc(C(=O)Nc2cccc(C3(Cc4nncn4C)COC3)c2)nc(C2CC2)n1)N1CCCC1 (stereo not drawn) turned out to be ≥ 7.00

Field pIC50 (entry C[C@H](Cc1nncn1C)c1cccc(NC(=O)c2cc(C(=O)N3CCC(O)C3(C)C)ccn2)c1 (stereo partly drawn) ) reads ≥ 5.00

Per the record, Cn1cnnc1[C@@H]1C[C@@H]1c1cccc(N2Cc3c(cc(CN4CC[C@H](F)C4)cc3C(F)(F)F)C2=O)c1 has pIC50 of ≥ 7.00

Value of pIC50 reported for the compound C[C@H](Sc1nncn1C)c1cccc(NC(=O)c2cc3ccccc3c(C(F)(F)F)n2)c1 is ≥ 5.00

Consider Cn1cnnc1[C@@H](F)C1(c2cccc(N3Cc4c(cc(CN5CCCC5)cc4C(F)(F)F)C3=O)c2)COC1 [Example 673a] . Its measured pIC50 is ≥ 7.00

---

- Assay System: Cbl-b (Homo sapiens, UniProt Q13191)
- Sequence (Q13191 36-427): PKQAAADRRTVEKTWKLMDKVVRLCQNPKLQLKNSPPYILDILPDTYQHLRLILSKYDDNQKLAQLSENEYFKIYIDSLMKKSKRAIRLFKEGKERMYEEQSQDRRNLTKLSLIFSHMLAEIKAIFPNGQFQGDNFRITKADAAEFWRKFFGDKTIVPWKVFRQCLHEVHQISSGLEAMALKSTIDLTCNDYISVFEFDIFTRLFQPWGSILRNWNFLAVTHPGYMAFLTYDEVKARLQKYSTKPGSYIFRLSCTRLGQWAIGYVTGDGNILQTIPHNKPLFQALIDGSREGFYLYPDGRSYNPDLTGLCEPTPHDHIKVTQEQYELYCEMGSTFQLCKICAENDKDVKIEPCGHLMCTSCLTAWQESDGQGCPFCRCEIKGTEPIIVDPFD
- Assay: Cbl-b activity assay (Cbl-b inhibition assay), TR-FRET of Cbl-b interaction with UbcH5B-Ub
- Assay type: biochemical
- Run Conditions: assay buffer with 100 mM NaCl, 60 nM Src kinase; read-out: Cbl-b activity IC50
Property: IC50

Please review the entries below; each comes with its answer.
C[C@H](Sc1nncn1C)c1cccc(NC(=O)c2ccc(C#N)c(C3CC3)n2)c1 = < 100 nM
Cn1cnnc1CC1(c2cccc(N3Cc4c(cc(CN5CCC6(CC6)C5)cc4C(F)(F)F)C3=O)c2)COC1 = < 100 nM
C[C@H](Sc1nncn1C)c1cccc(NC(=O)c2cc(C(=O)N3CC[C@@H](N)C3)ccn2)c1 = 3000 to 10000 nM
C[C@H](Cc1nncn1C)c1ccnc(N2Cc3c(cccc3C(F)(F)F)C2=O)c1 [Compound 304b] = 301 to 1000 nM
C[C@H](Sc1nncn1C)c1cccc(NC(=O)c2cc(C(F)(F)F)c(Cl)cn2)c1 = 1000 to 3000 nM

Form field, IC50 with Cbl-b (Homo sapiens, UniProt Q13191), item C[C@H](Sc1nncn1C)c1cccc(NC(=O)c2cccc(C(C)(F)F)n2)c1 : 100 to 300 nM

The measured IC50 that Cn1cnnc1CC1(c2cccc(N3Cc4c(cc(CN5CCCCC(F)C5)cc4C(F)(F)F)C3=O)c2)COC1 (centres unmarked) showed for Cbl-b (Homo sapiens, UniProt Q13191) is < 100 nM

I looked up C[C@H](Cc1nncn1C)c1cccc(NC(=O)c2cc(C(=O)N3CC(O)C(C)(C)C3)ccn2)c1 (some centres unmarked) and its IC50 for Cbl-b (Homo sapiens, UniProt Q13191) was 1000 to 3000 nM

---

// values below are Kd; system is Cbl-b (residues 36-427) (Homo sapiens, UniProt Q13191)
Sequence (Q13191 36-427): as above

As a guide, the following entries are already answered.
C[C@H](Sc1nncn1C)c1cccc(NC(=O)c2cccc(-c3ccn[nH]3)c2)c1 = 3 to 10 µM
C[C@H](Sc1nncn1C)c1cccc(NC(=O)c2cccc(OC(F)(F)F)c2)c1 = 3 to 10 µM

For record Cn1cnnc1C(F)(F)C(C)(F)c1cccc(N2Cc3c(cccc3C(F)(F)F)C2=O)c1 (racemic) the listed Kd is 3 to 10 µM

Reported Kd for C[C@H](c1cc2c(c(C(F)(F)F)c1)CN(c1cccc(C3(C(F)(F)c4nncn4C)COC3)c1)C2=O)N1CC[C@H](F)C1 was < 0.1 µM

The recorded Kd for entry C[C@H](Sc1nncn1C)c1cccc(NC(=O)c2cc(C(=O)N3CCCC3)ccn2)c1 equals > 10 µM

---

- Tested on: T-cell
- Assay: IL-2 secretion from T-cells co-stimulated with anti-CD3 and anti-CD28 antibody (Biological Example 2)
- Format: cell-based, human
- Run Conditions: Homo sapiens, T-cell, 1 μM compound; primary human total T-cells; baseline = anti-CD3/anti-CD28 stimulated cells without inhibitor; read-out: IL-2 secretion, Anti-CD3/Anti-CD28 stimulation, fold change over baseline
Property: fold induction at 1 µM

Examples from the recorded data:
Cn1cnnc1C(F)(F)[C@](C)(F)c1cccc(N2Cc3c(cc(CN4CC(C#N)C4)cc3C(F)(F)F)C2=O)c1 = 2.51 to 5
Cc1n[nH]c(C)c1-c1cc2c(c(C(F)(F)F)c1)CN(c1cccc(C3(Cc4nncn4C)COC3)c1)C2=O = 2.51 to 5
C[C@H](Cc1nncn1C)c1cccc(N2Cc3c(cc(CN4CC(C)(O)C4)cc3C(F)(F)F)C2=O)c1 = > 7.5

Summary for this molecule, Cn1cnnc1C[C@H](c1cccc(N2Cc3c(cccc3C(F)(F)F)C2=O)c1)C(F)(F)F [Compound 471a] : fold induction at 1 µM is 1.01 to 2.5

Note to self: fold induction at 1 µM recorded for C[C@H](Cc1nncn1C)c1cccc(N2Cc3c(cc(CN4CC(O)C(F)(F)C4)cc3C(F)(F)F)C2=O)c1 (stereo partly shown) was 5 to 7.5

Data point: Cc1cc(C(=O)Nc2cccc(-c3c(-c4nncn4C)cnn3C)c2)nc(C2CC2)n1 ; fold induction at 1 µM = 1.01 to 2.5

Per the record, C[C@H](c1cc2c(c(C(F)(F)F)c1)CN(c1cccc(C3(Cc4nncn4C)COC3)c1)C2=O)N1CC(C)(F)C1 [Compound 543b] has fold induction at 1 µM of > 7.5

Cited source: patent US20220324835A1
